target: Pyruvate kinase PKM (Homo sapiens, UniProt P14618); assay: Inhibition of N-terminal his8-tagged PKM2 (unknown origin) in presence of FBP by Michaelis-menten analysis
Sequence (P14618 whole entry): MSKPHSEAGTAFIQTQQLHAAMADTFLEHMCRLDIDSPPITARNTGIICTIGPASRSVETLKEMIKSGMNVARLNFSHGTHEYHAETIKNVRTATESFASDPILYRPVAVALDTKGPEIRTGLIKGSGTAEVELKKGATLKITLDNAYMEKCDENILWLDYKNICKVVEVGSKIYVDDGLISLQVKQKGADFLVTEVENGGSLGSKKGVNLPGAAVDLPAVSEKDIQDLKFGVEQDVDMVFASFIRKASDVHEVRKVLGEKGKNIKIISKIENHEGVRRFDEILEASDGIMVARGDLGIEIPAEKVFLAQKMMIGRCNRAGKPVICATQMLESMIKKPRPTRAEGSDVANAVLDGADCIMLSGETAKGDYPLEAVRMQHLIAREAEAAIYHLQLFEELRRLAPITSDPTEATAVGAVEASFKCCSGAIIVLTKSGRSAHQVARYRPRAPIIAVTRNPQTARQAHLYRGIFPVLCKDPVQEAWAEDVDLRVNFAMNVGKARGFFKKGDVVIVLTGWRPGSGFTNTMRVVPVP
pIC50: −log10 of the molar value.
Threshold rule: pIC50 greater than or equal to 6 is fulfilled; below that, not fulfilled.

1) COC(=O)c1cc[n+]2[se]c(C3(O)CCC(F)(F)CC3)c(Br)c2c1	fulfilled
2) COC(=O)c1cc[n+]2[se]c(C3([O-])CCC3)c(Br)c2c1	fulfilled
3) COC(=O)c1cc[n+]2[se]c(C3([O-])CCCC3)c(Br)c2c1	fulfilled
4) COC(=O)c1cc[n+]2[se]c(C3(O)CCCCC3)c(Br)c2c1.[Cl-]	fulfilled
5) NC(=O)c1cc[n+]2[se]c(C3(O)CCCCC3)c(Br)c2c1	fulfilled
6) COC(=O)c1ccc2c(Br)c(C3(O)CCCCC3)[se][n+]2c1	fulfilled
7) NC(=O)c1cc[n+]2[se]c(C3(O)CCC(F)(F)CC3)c(Br)c2c1	fulfilled
8) [2H]C([2H])([2H])OC(=O)c1cc[n+]2[se]c(C3(O)CCCCC3)c(Br)c2c1.[Cl-]	fulfilled
9) O=c1cc(-c2ccc(O)cc2)oc2cc(O)cc(O)c12	not fulfilled
10) OC1(c2[se][n+]3ccccc3c2Br)CCCCC1	not fulfilled

---

Recorded IC50 values for a group of molecules are listed next.
biological target: Pyruvate kinase PKM (Homo sapiens); test: Inhibition of N-terminal his8-tagged PKM2 (unknown origin)
measured-quantity: IC50

1. CCCCCCCCCCCCCC(C)(O)c1[se][n+]2ccc(C(=O)OC)cc2c1Br (stereo not given)	> 1000 nM
2. O=C(O)c1ccc2c(Br)c(C3(O)CCCCC3)[se][n+]2c1	> 1000 nM
3. [2H]C([2H])([2H])OC(=O)c1cc[n+]2[se]c(C3(O)CCCCC3)c(Br)c2c1.[Cl-]	478 nM
4. COC(=O)c1cc[n+]2[se]c(C3([O-])CCCC3)c(Br)c2c1	380 nM
5. COC(=O)c1cc[n+]2[se]c(C3(O)C4CC5CC(C4)CC3C5)c(Br)c2c1 (stereo not given)	> 1000 nM
6. COC(=O)c1ccc2c(Br)c(C3(O)CCCCC3)[se][n+]2c1	545 nM
7. CCCCCCCCCCCCCC(C)(O)c1[se][n+]2ccc(C(N)=O)cc2c1Br (stereo not given)	901 nM
8. COC(=O)c1cc(C)[n+]2[se]c(C3(O)CCCCC3)c(Br)c2c1	1360 nM
9. COC(=O)c1cc[n+]2[se]c(C3(O)CCC(F)(F)CC3)c(Br)c2c1	637 nM
10. NC(=O)c1cc[n+]2[se]c(C3(O)CCC(F)(F)CC3)c(Br)c2c1	362 nM
11. COC(=O)c1cc[n+]2[se]c(C3([O-])CCC3)c(Br)c2c1	854 nM
12. NC(=O)c1cc[n+]2[se]c(C3(O)C4CC5CC(C4)CC3C5)c(Br)c2c1 (stereo not given)	1010 nM
13. NC(=O)c1cc[n+]2[se]c(C3(O)CCCCC3)c(Br)c2c1	420 nM
14. O=c1cc(-c2ccc(O)cc2)oc2cc(O)cc(O)c12 [APIGENIN]	> 20000 nM
15. OC1(c2[se][n+]3ccccc3c2Br)CCCCC1	2920 nM
16. COC(=O)c1cc2c(Br)c(C3(O)CCCCC3)[se][n+]2cc1F	897 nM
17. O=C(O)c1cc[n+]2[se]c(C3(O)CCCCC3)c(Br)c2c1	1060 nM
18. NC(=O)c1cccc2c(Br)c(C3(O)CCCCC3)[se][n+]12	> 1000 nM
19. NC(=O)c1ccc2c(Br)c(C3(O)CCCCC3)[se][n+]2c1	> 1000 nM
20. COC(=O)c1cc[n+]2[se]c(C3(O)CCCCC3)c(Br)c2c1.[Cl-]	350 nM

---

target: Pyruvate kinase PKM (Homo sapiens, UniProt P14618); test: Inhibition of PKM2 (unknown origin) by ITC analysis
pIC50: −log10 of the molar value.
measured-quantity: pIC50

1) COC(=O)c1cc[n+]2[se]c(C3(O)CCCCC3)c(Br)c2c1.[Cl-]	6.60

---

target: Pyruvate kinase PKM (Homo sapiens, UniProt P14618); experiment: Inhibition of PKM1 (unknown origin); set-up: concentration or dose not given beside the values; details: concentration not given here
Sequence (P14618 2-531 limits assumed): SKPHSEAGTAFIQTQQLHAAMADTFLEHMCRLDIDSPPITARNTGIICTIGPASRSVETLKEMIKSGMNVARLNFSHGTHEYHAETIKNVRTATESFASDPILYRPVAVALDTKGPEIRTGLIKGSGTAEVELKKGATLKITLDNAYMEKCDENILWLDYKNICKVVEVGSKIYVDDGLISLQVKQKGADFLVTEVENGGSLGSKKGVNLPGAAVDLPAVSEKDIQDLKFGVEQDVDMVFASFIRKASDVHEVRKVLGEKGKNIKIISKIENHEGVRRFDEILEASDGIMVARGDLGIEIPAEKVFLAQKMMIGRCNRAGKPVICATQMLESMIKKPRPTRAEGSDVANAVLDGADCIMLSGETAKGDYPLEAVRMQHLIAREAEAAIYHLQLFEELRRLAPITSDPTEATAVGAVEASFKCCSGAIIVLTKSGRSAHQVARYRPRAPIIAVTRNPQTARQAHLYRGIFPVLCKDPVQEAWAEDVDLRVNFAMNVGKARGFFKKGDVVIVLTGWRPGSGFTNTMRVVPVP
measured-quantity: inhibition (%)

1. O=C(O)c1cc[n+]2[se]c(C3(O)CCCCC3)c(Br)c2c1	4
2. NC(=O)c1cc[n+]2[se]c(C3(O)CCCCC3)c(Br)c2c1	15
3. NC(=O)c1cc[n+]2[se]c(C3(O)CCC(F)(F)CC3)c(Br)c2c1	26
4. COC(=O)c1cc[n+]2[se]c(C3(O)CCCCC3)c(Br)c2c1.[Cl-]	13
5. COC(=O)c1cc[n+]2[se]c(C3([O-])CCC3)c(Br)c2c1	26

---

species: Oryctolagus cuniculus; assay: Inhibition of rabbit LDH at 1 uM relative to control
measured-quantity: inhibition (%)

1. NC(=O)c1cc[n+]2[se]c(C3(O)C4CC5CC(C4)CC3C5)c(Br)c2c1 (stereo not given)	6
2. COC(=O)c1cc(C)[n+]2[se]c(C3(O)CCCCC3)c(Br)c2c1	7
3. NC(=O)c1cc[n+]2[se]c(C3(O)CCCCC3)c(Br)c2c1	6
4. COC(=O)c1cc[n+]2[se]c(C3([O-])CCC3)c(Br)c2c1	7
5. O=C(O)c1cc[n+]2[se]c(C3(O)CCCCC3)c(Br)c2c1	9

---

system: MDA-MB-231; test: Cytotoxicity against human MDA-MB-231 cells assessed as inhibition of cell growth incubated for 48 hrs by MTT assay; assay type: functional, cell-based; details: MDA-MB-231, 48 h
measured-quantity: IC50

1. COC(=O)c1cc[n+]2[se]c(C3(O)CCCCC3)c(Br)c2c1.[Cl-]	510 nM
2. COc1cccc2c1C(=O)c1c(O)c3c(c(O)c1C2=O)C[C@@](O)(C(=O)CO)C[C@@H]3O[C@H]1C[C@H](N)[C@H](O)[C@H](C)O1	410 nM
3. [2H]C([2H])([2H])OC(=O)c1cc[n+]2[se]c(C3(O)CCCCC3)c(Br)c2c1.[Cl-]	400 nM
4. COC(=O)c1cc(C)[n+]2[se]c(C3(O)CCCCC3)c(Br)c2c1	370 nM
5. COC(=O)c1cc[n+]2[se]c(C3([O-])CCCC3)c(Br)c2c1	1660 nM
6. COC(=O)c1cc[n+]2[se]c(C3([O-])CCC3)c(Br)c2c1	6510 nM
7. NC(=O)c1cc[n+]2[se]c(C3(O)C4CC5CC(C4)CC3C5)c(Br)c2c1 (centres undefined)	650 nM
8. COC(=O)c1cc2c(Br)c(C3(O)CCCCC3)[se][n+]2cc1F	1380 nM
9. NC(=O)c1cc[n+]2[se]c(C3(O)CCC(F)(F)CC3)c(Br)c2c1	1360 nM
10. COC(=O)c1ccc2c(Br)c(C3(O)CCCCC3)[se][n+]2c1	430 nM
11. COC(=O)c1cc[n+]2[se]c(C3(O)CCC(F)(F)CC3)c(Br)c2c1	480 nM
12. NC(=O)c1cc[n+]2[se]c(C3(O)CCCCC3)c(Br)c2c1	1150 nM
13. O=C(O)c1cc[n+]2[se]c(C3(O)CCCCC3)c(Br)c2c1	6120 nM
14. CCCCCCCCCCCCCC(C)(O)c1[se][n+]2ccc(C(N)=O)cc2c1Br (centres undefined)	2420 nM

---

tested on: MCF7; test: cells; details: Homo sapiens, MCF7, 48 h
Description: Cytotoxicity against human MCF7 cells assessed as inhibition of cell growth incubated for 48 hrs by MTT assay
Form field: IC50 (one value per entry).
measured-quantity: IC50 (nM)

1) CCCCCCCCCCCCCC(C)(O)c1[se][n+]2ccc(C(N)=O)cc2c1Br (centres undefined)	1010
2) NC(=O)c1cc[n+]2[se]c(C3(O)C4CC5CC(C4)CC3C5)c(Br)c2c1 (centres undefined)	610
3) [2H]C([2H])([2H])OC(=O)c1cc[n+]2[se]c(C3(O)CCCCC3)c(Br)c2c1.[Cl-]	380
4) COC(=O)c1cc[n+]2[se]c(C3([O-])CCCC3)c(Br)c2c1	360
5) NC(=O)c1cc[n+]2[se]c(C3(O)CCCCC3)c(Br)c2c1	2220
6) COC(=O)c1cc[n+]2[se]c(C3(O)C4CC5CC(C4)CC3C5)c(Br)c2c1 (centres undefined)	6870
7) COC(=O)c1cc[n+]2[se]c(C3(O)CCC(F)(F)CC3)c(Br)c2c1	280
8) NC(=O)c1cc[n+]2[se]c(C3(O)CCC(F)(F)CC3)c(Br)c2c1	1000
9) COC(=O)c1ccc2c(Br)c(C3(O)CCCCC3)[se][n+]2c1	870
10) CCCCCCCCCCCCCC(C)(O)c1[se][n+]2ccc(C(=O)OC)cc2c1Br (centres undefined)	3790
11) COC(=O)c1cc(C)[n+]2[se]c(C3(O)CCCCC3)c(Br)c2c1	300
12) COc1cccc2c1C(=O)c1c(O)c3c(c(O)c1C2=O)C[C@@](O)(C(=O)CO)C[C@@H]3O[C@H]1C[C@H](N)[C@H](O)[C@H](C)O1 [DOXORUBICIN]	470
13) COC(=O)c1cc2c(Br)c(C3(O)CCCCC3)[se][n+]2cc1F	1080
14) NC(=O)c1cccc2c(Br)c(C3(O)CCCCC3)[se][n+]12	3850
15) COC(=O)c1cc[n+]2[se]c(C3([O-])CCC3)c(Br)c2c1	2800
16) COC(=O)c1cc[n+]2[se]c(C3(O)CCCCC3)c(Br)c2c1.[Cl-]	1160
17) NC(=O)c1ccc2c(Br)c(C3(O)CCCCC3)[se][n+]2c1	2300
